These measurements were taken from the supplement of paper PMC10307832.

# Tested on: NCI-H358
# Protocol Details: relative viability (nuclei count vs DMSO), 5 days (fraction); higher = more cells survive
# Run Conditions: first compound 0.253 µM
Catalogue of relative viability values
Test Readout: relative viability

compound="Oc1nc(-c2ccc(C(F)(F)F)cc2)nc2c1CSCC2 [XAV939] + COc1cccc2cc(-c3nc([C@H]4CC[C@H](C(=O)O)CC4)n4ncnc(N)c34)[nH]c12 [OSI-027] (partner 0.5 µM)" reported_value=0.624
compound="Oc1nc(-c2ccc(C(F)(F)F)cc2)nc2c1CSCC2 [XAV939] + CC(=O)Nc1cccc(-n2c(=O)n(C3CC3)c(=O)c3c(Nc4ccc(I)cc4F)n(C)c(=O)c(C)c32)c1 [Trametinib] (partner 0.02 µM)" reported_value=0.134
compound="Oc1nc(-c2ccc(C(F)(F)F)cc2)nc2c1CSCC2 [XAV939] + CS(=O)(=O)CCNCc1ccc(-c2ccc3ncnc(Nc4ccc(OCc5cccc(F)c5)c(Cl)c4)c3c2)o1 [Lapatinib] (partner 2 µM)" reported_value=0.469
compound="C=C1C(=O)O[C@@H](CCCCCCCC)[C@@H]1C(=O)O [C-75] + COc1cccc2cc(-c3nc([C@H]4CC[C@H](C(=O)O)CC4)n4ncnc(N)c34)[nH]c12 [OSI-027] (partner 0.5 µM)" reported_value=0.871
compound="C=C1C(=O)O[C@@H](CCCCCCCC)[C@@H]1C(=O)O [C-75] + CCNC(=O)c1noc(-c2cc(C(C)C)c(O)cc2O)c1-c1ccc(CN2CCOCC2)cc1 [Luminespib] (partner 0.01 µM)" reported_value=0.247

* * *

Catalogue of relative viability values
# Test system: CAL-12T
# Protocol Details: relative viability (nuclei count vs DMSO), 5 days (fraction); higher = more cells survive
# Run Conditions: first compound 0.1581 µM
Test Readout: relative viability

compound="CC1(C)CCC(c2ccc(Cl)cc2)=C(CN2CCN(c3ccc(C(=O)NS(=O)(=O)c4ccc(N[C@H](CCN5CCOCC5)CSc5ccccc5)c(S(=O)(=O)C(F)(F)F)c4)cc3)CC2)C1 [Navitoclax] + CS(=O)(=O)CCNCc1ccc(-c2ccc3ncnc(Nc4ccc(OCc5cccc(F)c5)c(Cl)c4)c3c2)o1 [Lapatinib] (partner 2 µM)" test_readout="relative viability" reported_value=0.738
compound="CC1(C)CCC(c2ccc(Cl)cc2)=C(CN2CCN(c3ccc(C(=O)NS(=O)(=O)c4ccc(N[C@H](CCN5CCOCC5)CSc5ccccc5)c(S(=O)(=O)C(F)(F)F)c4)cc3)CC2)C1 [Navitoclax] + Nc1nc2[nH]cc(CCc3ccc(C(=O)N[C@@H](CCC(=O)O)C(=O)O)cc3)c2c(=O)[nH]1 [Pemetrexed] (partner 0.2 µM)" test_readout="relative viability" reported_value=1.23

* * *

Catalogue of relative viability values
# Test system: NCI-H1651
# Protocol Details: relative viability (nuclei count vs DMSO), 5 days (fraction); higher = more cells survive
# Run Conditions: first compound 0.5 µM
Test Readout: relative viability

molecule="CC1(C)CCC(c2ccc(Cl)cc2)=C(CN2CCN(c3ccc(C(=O)NS(=O)(=O)c4ccc(N[C@H](CCN5CCOCC5)CSc5ccccc5)c(S(=O)(=O)C(F)(F)F)c4)cc3)CC2)C1 [Navitoclax] + CC(=O)c1c(C)c2cnc(Nc3ccc(N4CCNCC4)cn3)nc2n(C2CCCC2)c1=O [Palbociclib] (partner 0.5 µM)" reported_value=0.54
molecule="CC1(C)CCC(c2ccc(Cl)cc2)=C(CN2CCN(c3ccc(C(=O)NS(=O)(=O)c4ccc(N[C@H](CCN5CCOCC5)CSc5ccccc5)c(S(=O)(=O)C(F)(F)F)c4)cc3)CC2)C1 [Navitoclax] + Cc1nc(NC(=O)N2CCC[C@H]2C(N)=O)sc1-c1ccnc(C(C)(C)C(F)(F)F)c1 [Alpelisib] (partner 2 µM)" reported_value=0.946
molecule="CC1(C)CCC(c2ccc(Cl)cc2)=C(CN2CCN(c3ccc(C(=O)NS(=O)(=O)c4ccc(N[C@H](CCN5CCOCC5)CSc5ccccc5)c(S(=O)(=O)C(F)(F)F)c4)cc3)CC2)C1 [Navitoclax] + C[C@]1(O)C[C@@H](c2nc(-c3ccc4ccc(-c5ccccc5)nc4c3)c3c(N)nccn32)C1 [Linsitinib] (partner 1 µM)" reported_value=0.937

* * *

# Test system: NCI-H2342
# Protocol Details: relative viability (nuclei count vs DMSO), 5 days (fraction); higher = more cells survive
# Run Conditions: first compound 0.253 µM
Test Readout: relative viability

compound="C=C1C(=O)O[C@@H](CCCCCCCC)[C@@H]1C(=O)O [C-75] + Cc1nc(Nc2ncc(C(=O)Nc3c(C)cccc3Cl)s2)cc(N2CCN(CCO)CC2)n1 [Dasatinib] (partner 0.075 µM)" reported_value=0.314
compound="C=C1C(=O)O[C@@H](CCCCCCCC)[C@@H]1C(=O)O [C-75] + CC(=O)c1c(C)c2cnc(Nc3ccc(N4CCNCC4)cn3)nc2n(C2CCCC2)c1=O [Palbociclib] (partner 0.5 µM)" reported_value=0.488
compound="Oc1nc(-c2ccc(C(F)(F)F)cc2)nc2c1CSCC2 [XAV939] + COc1cc2c(Oc3ccc(NC(=O)C4(C(=O)Nc5ccc(F)cc5)CC4)cc3F)ccnc2cc1OCCCN1CCOCC1 [Foretinib] (partner 0.25 µM)" reported_value=0.936
compound="C=C1C(=O)O[C@@H](CCCCCCCC)[C@@H]1C(=O)O [C-75] + Cc1cc(Nc2cc(N3CCN(C)CC3)nc(Sc3ccc(NC(=O)C4CC4)cc3)n2)n[nH]1 [Tozasertib] (partner 0.1 µM)" reported_value=0.503

* * *

Catalogue of relative viability values
# System: NCI-H838
# Protocol Details: relative viability (nuclei count vs DMSO), 5 days (fraction); higher = more cells survive
# Run Conditions: first compound 8 µM
Test Readout: relative viability

compound="C=C1C(=O)O[C@@H](CCCCCCCC)[C@@H]1C(=O)O [C-75] + CC(C)C[C@H](NC(=O)[C@H](Cc1ccccc1)NC(=O)c1cnccn1)B(O)O [Bortezomib] (partner 0.002 µM)" measured_on=NCI-H838 reported_value=0.684
compound="C=C1C(=O)O[C@@H](CCCCCCCC)[C@@H]1C(=O)O [C-75] + O=C(c1cc(Cc2n[nH]c(=O)c3ccccc23)ccc1F)N1CCN(C(=O)C2CC2)CC1 [Olaparib] (partner 8 µM)" measured_on=NCI-H838 reported_value=0.654
compound="C=C1C(=O)O[C@@H](CCCCCCCC)[C@@H]1C(=O)O [C-75] + CCNC(=O)c1noc(-c2cc(C(C)C)c(O)cc2O)c1-c1ccc(CN2CCOCC2)cc1 [Luminespib] (partner 0.01 µM)" measured_on=NCI-H838 reported_value=0.238

* * *

# Tested on: NCI-H2405
# Protocol Details: relative viability (nuclei count vs DMSO), 5 days (fraction); higher = more cells survive
# Run Conditions: first compound 0.005 µM
Test Readout: relative viability

molecule="CC1(C)CCC(c2ccc(Cl)cc2)=C(CN2CCN(c3ccc(C(=O)NS(=O)(=O)c4ccc(N[C@H](CCN5CCOCC5)CSc5ccccc5)c(S(=O)(=O)C(F)(F)F)c4)cc3)CC2)C1 [Navitoclax] + NC(=O)Nc1cc(-c2cccc(F)c2)sc1C(=O)N[C@H]1CCCNC1 [AZD7762] (partner 0.2 µM)" test_readout="relative viability" reported_value=0.703
molecule="CC1(C)CCC(c2ccc(Cl)cc2)=C(CN2CCN(c3ccc(C(=O)NS(=O)(=O)c4ccc(N[C@H](CCN5CCOCC5)CSc5ccccc5)c(S(=O)(=O)C(F)(F)F)c4)cc3)CC2)C1 [Navitoclax] + Cc1nc(NC(=O)N2CCC[C@H]2C(N)=O)sc1-c1ccnc(C(C)(C)C(F)(F)F)c1 [Alpelisib] (partner 2 µM)" test_readout="relative viability" reported_value=0.762
molecule="CC1(C)CCC(c2ccc(Cl)cc2)=C(CN2CCN(c3ccc(C(=O)NS(=O)(=O)c4ccc(N[C@H](CCN5CCOCC5)CSc5ccccc5)c(S(=O)(=O)C(F)(F)F)c4)cc3)CC2)C1 [Navitoclax] + C[C@@H](Oc1cc(-c2cnn(C3CCNCC3)c2)cnc1N)c1c(Cl)ccc(F)c1Cl [Crizotinib] (partner 1 µM)" test_readout="relative viability" reported_value=0.788
molecule="CC1(C)CCC(c2ccc(Cl)cc2)=C(CN2CCN(c3ccc(C(=O)NS(=O)(=O)c4ccc(N[C@H](CCN5CCOCC5)CSc5ccccc5)c(S(=O)(=O)C(F)(F)F)c4)cc3)CC2)C1 [Navitoclax] + Cc1cc(Nc2cc(N3CCN(C)CC3)nc(Sc3ccc(NC(=O)C4CC4)cc3)n2)n[nH]1 [Tozasertib] (partner 0.1 µM)" test_readout="relative viability" reported_value=0.761
molecule="CC1(C)CCC(c2ccc(Cl)cc2)=C(CN2CCN(c3ccc(C(=O)NS(=O)(=O)c4ccc(N[C@H](CCN5CCOCC5)CSc5ccccc5)c(S(=O)(=O)C(F)(F)F)c4)cc3)CC2)C1 [Navitoclax] + Nc1ncn([C@H]2C[C@H](O)[C@@H](CO)O2)c(=O)n1 [Decitabine] (partner 2 µM)" test_readout="relative viability" reported_value=0.75
